The measurements presented in this section are drawn from patent US20250186437A1.

- Tested on: MOLM-13 cells
- assay_overview: MOLM-13 Cell Proliferation Assay (indicator of DHODH inhibition)
- Assay type: cell-based
- test_context: Homo sapiens, 72 Hours of culture, CellTiter-Glo, no uridine
Under this convention, condition met denotes IC50 strictly below 2 nM and condition not met denotes IC50 at or above 2 nM.

Q: Determine if CN1CCN(c2ncc([C@H]3c4[nH]c5ccc(Cl)cc5c4CCN3c3nc(C(F)F)nc(C(F)(F)F)n3)cn2)CC1 [Compound 508] shows IC50 strictly lower than 2 nM.
A: condition met

Q: Confirm or reject: IC50 of Cc1nc(C)nc(N2CCc3c([nH]c4c(N)cc(Cl)cc34)C2c2ccc(N3CCOCC3)nc2)n1 (stereo not shown) [Compound 321] lies strictly below 2 nM
A: condition not met

Q: Input COc1ccc(C2c3[nH]c4ccc(Cl)cc4c3CCN2c2nccc(C(F)(F)F)n2)c(F)c1F (stereo not shown) [Compound 120] ; condition: IC50 strictly below 2 nM. Does it hold?
A: condition not met

Q: Please check: IC50 for Cc1cnn(-c2ccc3[nH]c4c(c3c2)CCN(c2nc(C(F)(F)F)nc(C(F)(F)F)n2)[C@H]4c2ccc(C)c(F)c2F)c1 [Compound 529] , strictly under 2 nM or not?
A: condition not met

Q: Given CN(C)c1nc(N2CCc3c([nH]c4ccc(Cl)cc34)[C@@H]2c2ccc(N3CCOCC3)nc2)nc(C(F)(F)F)n1 [Compound 443] , is recorded IC50 strictly lower than 2 nM?
A: condition not met

Q: Dear colleague, could you confirm whether IC50 of Cc1ccc(C2c3[nH]c4ccc(Cl)cc4c3CCN2c2nc(C)nc(C)n2)c(F)c1 (stereo not shown) [Compound 452] falls below 2 nM? Thanks.
A: condition not met

Q: Please let me know if FC(F)(F)c1ccnc(N2CCc3c([nH]c4ccc(Cl)cc34)C2c2cnc(N3C4CCC3COC4)nc2)n1 (stereo not shown) [Compound 337] shows IC50 below 2 nM.
A: condition not met

Q: Hi there! Is IC50 for Cc1ccc([C@H]2c3[nH]c4ccc(Cl)cc4c3CCN2c2ncnc(C(F)(F)F)n2)c(F)c1F [Compound 461] below 2 nM, do you know?
A: condition met

Q: Does Cc1nc(N2CCc3c([nH]c4ccc(Cl)c(F)c34)C2c2ccc(/C=C/CCO)cc2)nc(C)c1F (stereo not shown) [Compound 243] have IC50 strictly under 2 nM?
A: condition met

Q: Hi there! Is IC50 for Cc1ccnc(N2CCc3c([nH]c4cc(F)c(Cl)cc34)C2c2ccc(F)cc2)n1 (stereo not shown) [Compound 9] below 2 nM, do you know?
A: condition not met

Q: Does the reported IC50 of CC(C)c1ccnc(N2CCc3c([nH]c4cc(F)c(Cl)cc34)C2c2ccc(F)cc2)n1 (stereo not shown) [Compound 23] stay below 2 nM?
A: condition not met

Q: Consider the compound Fc1cc2[nH]c3c(c2cc1Cl)CCN(c1ncccn1)C3c1ccc(C2CC2)cc1 (stereo not shown) [Compound 45] . Is its IC50 strictly less than 2 nM?
A: condition not met

Q: Does the reported IC50 of COC(=O)c1ccnc(N2CCc3c([nH]c4ccc(Cl)c(F)c34)C2c2ccc(Cl)cc2)n1 (stereo not shown) [Compound 87] stay below 2 nM?
A: condition not met

Q: I wonder whether N#Cc1ncnc(N2CCc3c([nH]c4ccc(Cl)cc34)[C@@H]2c2cnc(N3CCOCC3)nc2)n1 [Compound 414] has IC50 below 2 nM. Can you tell?
A: condition not met

Q: Would you kindly verify if IC50 of CSc1nc(N2CCc3c([nH]c4ccc(Cl)cc34)[C@@H]2c2ccc(C)c(F)c2F)nc(C(F)(F)F)n1 [Compound 389] is strictly less than 2 nM?
A: condition met

Q: Hello, I'm reviewing records and need to know if IC50 of Cc1nc(N2CCc3c([nH]c4cc(F)c(Cl)cc34)C2c2cccc(F)c2F)nc(C)c1C (stereo not shown) [Compound 171] is below 2 nM. Could you check?
A: condition not met

Q: Please indicate whether the reported IC50 of Cc1cc(C(F)(F)F)nc(N2CCc3c([nH]c4ccc(Cl)c(F)c34)C2c2ccc(C)c(F)c2F)n1 (stereo not shown) [Compound 206] is strictly below 2 nM.
A: condition met

Q: Take the compound Fc1cc(Br)ccc1C1c2[nH]c3ccc(Cl)cc3c2CCN1c1nccc(C(F)(F)F)n1 (stereo not shown) [Compound 268] and say whether its IC50 is less than 2 nM.
A: condition met
